# TEST DETAILS: viability loss with induced miR-34 in A549 – imaging, A549 dox-inducible miR-34, nuclei and caspase counts, primary screen (AID 1347080)
# ASSAY SETUP: A549 miR-34 inducible, Hoechst nuclei count, 48 h; measured here: total cells without miR-34 induction
READOUT KIND: cell count
Keep it simple and answer with nothing but the number.

If you can, please state the reported cell count value of O=C(NCC1(c2nc(-c3ccccc3)cs2)CCOCC1)c1cccc(-c2noc(C(F)(F)F)n2)c1 .
7920

Record: O=C1C2CCCCC2C(=O)N1CCCCN1CCN(c2nsc3ccccc23)CC1 (stereo unspecified)
8440

Try the molecule O=C1/C(=C/c2ccsc2)CC/C1=C\c1cccs1
10000

For CCc1cc2c(cc1CC)CC(NCC(O)c1ccc(O)c3[nH]c(=O)ccc13)C2 (stereo unspecified) then?
7410

Now the molecule Cc1cc(NC(=O)Cn2cc(-c3cccc4cccnc34)cn2)n(C)n1
10100

Another molecule: CCOC(=O)c1cnc2ccc(-c3cncc(NS(=O)(=O)c4ccccc4)c3)cn12
1860

Another molecule to check: C=C1C(=CC=C2CCC[C@@]3(C)C2CCC3C(C)CCCC(C)(C)O)CC(O)CC1O (stereo partly specified)
10300

And then COc1c(N2CC3CCCNC3C2)c(F)cc2c(=O)c(C(=O)O)cn(C3CC3)c12 (stereo unspecified) , what is it?
10000

Field entry: NC(=O)c1c(NC(=O)C2CC2)sc2c1CCCC2
8890

Subsequent entry: Cc1nonc1CN(C)c1ncnc2nc[nH]c12
10200

Likewise for CC1CC(=O)NN=C1c1ccc(NN=C(C#N)C#N)cc1 (stereo unspecified) ?
9730

Again, but for COC1CC2CCC(C)[C@@](O)(O2)C(=O)C(=O)N2CCCCC2C(=O)OC(C(C)CC2CCC(OCCO)C(OC)C2)CC(=O)C(C)C=C(C)C(O)C(OC)C(=O)C(C)CC(C)C=CC=CC=C1C (stereo partly specified)
4420

Try this molecule too: CC(=O)NC(CCCN=C(N)N)C(=O)O (stereo unspecified)
9630

Also, CCOc1nc2cccc(C(=O)O)c2n1Cc1ccc(-c2ccccc2-c2noc(=O)[nH]2)cc1 please.
8680

COc1ccc(C(=O)/C(Cc2cc(OC)c(OC)c(OC)c2)=C(\C(=O)O)c2ccc3c(c2)OCO3)cc1 , same question.
2980

How about this molecule: CC1COCCN1c1cc(C2(S(C)(=O)=O)CC2)nc(-c2cccc3[nH]ccc23)n1 (stereo unspecified)
2770

How about O=C1CCC[C@@H]2[C@@H]3CCC[N+]4([O-])CCC[C@H](CN12)[C@@H]34 (stereo partly specified) ?
9840

Please answer likewise for O=S(=O)(O)CCCSc1nc2ccccc2s1
9700

Can you handle CC(C)(C)C(=O)OCOC(=O)[C@@H]1N2C(=O)[C@@H](N=CN3CCCCCC3)[C@H]2SC1(C)C next?
10100

Next record, please: CC1CS(=O)(=O)CCN1N=Cc1ccc([N+](=O)[O-])o1 (stereo unspecified)
9680

Repeat for the following molecule: COc1ccccc1-c1ccc(C(=O)O)o1
10000

====

# TEST DETAILS: drug combination growth inhibition, ovarian cancer – cell-based, oncology-focused library, rucaparib conditional, profiling panel (AID 1508598)
# ASSAY SETUP: patient-derived ovarian cancer cells, CellTiter-Glo viability, 144 h; at 0.313 µM; OCI-C5x cells; without rucaparib; stronger effect = lower value
READOUT KIND: viability (%)
Quick reminder: number only, in %, skip the unit.

GET /values?readout=viability&item= CC(=O)[C@]1(O)Cc2c(O)c3c(c(O)c2[C@H](O[C@H]2C[C@H](N)[C@H](O)[C@H](C)O2)C1)C(=O)c1ccccc1C3=O
1.75

Another: Cc1cc([N+](=O)[O-])ccc1NS(=O)(=O)c1cc(Cl)ccc1Cl
115

What about C=C1/C(=C/C=C2\CCC[C@@]3(C)[C@H]2CC[C@H]3[C@H](C)/C=C/[C@@H](C)C(C)C)C[C@H](O)C[C@@H]1O ?
96.6

Cool, now CCCCCOC(=O)Nc1nc(=O)n([C@@H]2O[C@H](C)[C@@H](O)C2O)cc1F (stereo partly specified)
109

CC[C@]1(O)C[C@@H]2CN(CCc3c([nH]c4ccccc34)[C@@](C(=O)OC)(c3cc4c(cc3OC)N(C=O)[C@H]3[C@@](O)(C(=O)OC)[C@H](OC(C)=O)[C@]5(CC)C=CCN6CC[C@@]43[C@@H]65)C2)C1 , same question.
23.4

Also CO[C@H]1C[C@H]2CC[C@@H](C)[C@@](O)(O2)C(=O)C(=O)N2CCCC[C@H]2C(=O)O[C@H]([C@H](C)C[C@@H]2CC[C@H](OC(=O)C(C)(CO)CO)[C@H](OC)C2)CC(=O)[C@H](C)/C=C(\C)[C@@H](O)[C@@H](OC)C(=O)[C@H](C)C[C@H](C)/C=C/C=C/C=C/1C , if possible.
87.6
